Tested on: Vero E6 infected with SARS-CoV-2
Assay: morphology score (similarity to uninfected cells); higher = more like uninfected cells
Details: 24 h
Below, each entry is listed with its recorded morphology score.
Lab note: jot the number down without any unit.

Known results for compounds:
O=C1[C@@H]2[C@H]3CC[C@H](C3)[C@@H]2C(=O)N1C[C@@H]1CCCC[C@H]1CN1CCN(c2nsc3ccccc23)CC1 [lurasidone] (10 µM) : 0.0507
COc1ccc(CN2CCN(C(c3ccc(F)cc3)c3ccc(F)cc3)CC2)c(OC)c1OC [lomerizine] (10 µM) : 0.0043
CN(CCOP(=O)(O)O)C(=N)N [creatinol-phosphate] (10 µM) : 0.077

Which morphology score is listed for CC(=O)O[C@]1(C(C)=O)CC[C@H]2[C@@H]3C[C@H](C)C4=CC(=O)CC[C@]4(C)[C@H]3CC[C@@]21C [medroxyprogesterone-acetate] (10 µM) ? 0.153

For the compound COc1ccnc2[nH]cc(C(=O)C(=O)N3CCN(C(=O)c4ccccc4)C[C@H]3C)c12 (10 µM) , what morphology score is on record? -0.0708

Entry COc1cc(Br)c(S(=O)(=O)Nc2ccc(Cl)c(O[C@@H]3CCN(C)C3)c2)cc1OC (10 µM) : reported morphology score = ? -0.105

Could you share which morphology score value was measured for CCCCCCCCCCCCCCCCCCN(CCCCCCCCCCCCCCCCCC)CCCN(CCO)CCO [avridine] (10 µM) ? 0.0689

* * *

Attribute: SARS-CoV-2 infection rate
System: Vero E6 infected with SARS-CoV-2
Assay: SARS-CoV-2 infection rate relative to infected DMSO; higher = more infection, active = 60 or less
Conditions: 24 h
Expressed in %, but write only the number.

O=C(c1ccc2nccnc2c1)N1CCCCC1 [ampalex] (10 µM) : 104
C[C@]12CC[C@H](O)C[C@H]1CC[C@@H]1[C@@H]2CC[C@]2(C)[C@@](O)(c3ccoc3)CC[C@]12O [rostafuroxine] (10 µM) : 118

Provide the documented SARS-CoV-2 infection rate with Vero E6 infected with SARS-CoV-2 as the system for C#C[C@]1(O)CC[C@H]2[C@@H]3CCC4=Cc5oncc5C[C@]4(C)[C@H]3CC[C@@]21C [danazol] (10 µM) 72

Kindly state the measured SARS-CoV-2 infection rate obtained for NS(=O)(=O)c1cc2c(cc1C(F)(F)F)NC(Cc1ccccc1)NS2(=O)=O (configuration not stated) [bendroflumethiazide] (10 µM) with Vero E6 infected with SARS-CoV-2. 87.5

Find the measured SARS-CoV-2 infection rate: item O=C(CN1C(=O)C2(CCCC2)NC[C@H]1c1cc(F)cc(F)c1)Nc1ccc2c(c1)C[C@@]1(C2)C(=O)Nc2ncccc21 (10 µM) , target or system Vero E6 infected with SARS-CoV-2. 101

Tell me reported SARS-CoV-2 infection rate for CC[C@H](CO)Nc1nc(NCc2ccccc2)c2ncn(C(C)C)c2n1 [roscovitine] (10 µM) , tested with Vero E6 infected with SARS-CoV-2. 96

Give SARS-CoV-2 infection rate (Vero E6 infected with SARS-CoV-2) of the following compound: CN(C)C(=O)N[C@H]1CC[C@H](CCN2CCN(c3cccc(Cl)c3Cl)CC2)CC1 [cariprazine] (10 µM) 113

Observed SARS-CoV-2 infection rate on Vero E6 infected with SARS-CoV-2 for CCOP(=S)(OCC)Oc1nc(Cl)c(Cl)cc1Cl [chlorpyrifos] (10 µM) , please. 112

Request body: readout SARS-CoV-2 infection rate, system Vero E6 infected with SARS-CoV-2, query Cc1ccc(CC2(O)CCN(CCOc3ccc(O)cc3)CC2)cc1 (10 µM) . Return the value. 111

Recall the recorded SARS-CoV-2 infection rate for CN(C)CCc1c[nH]c2ccc(CS(=O)(=O)N3CCCC3)cc12 [almotriptan] (10 µM) with Vero E6 infected with SARS-CoV-2 and state it. 110

What is its SARS-CoV-2 infection rate for Vero E6 infected with SARS-CoV-2? Entry: Cc1cc(Cn2cnc3c2C[C@@H](C(=O)O)N(C(=O)C(c2ccccc2)c2ccccc2)C3)ccc1N(C)C (10 µM) 99

Which SARS-CoV-2 infection rate is reported with Vero E6 infected with SARS-CoV-2 for this entry: CN1c2ccccc2C(NCCCCCCC(=O)O)c2ccc(Cl)cc2S1(=O)=O (configuration not stated) [tianeptine] (10 µM) ? 104

What value of SARS-CoV-2 infection rate on Vero E6 infected with SARS-CoV-2 does CN(C)C(=N)NCCC[C@H](N)C(=O)O [asymmetrical-dimethylarginine] (10 µM) have? 95.5

# value lookup — system Vero E6 infected with SARS-CoV-2, readout SARS-CoV-2 infection rate, item CO[C@@H](C)Cn1c(=O)n(C)c2cnc3ccc(-c4cncc(C(C)(C)O)c4)cc3c21 (10 µM) 112

Please tell me: SARS-CoV-2 infection rate of O=C1CC2(CCCC2)CC(=O)N1CCNC[C@H]1COc2ccccc2O1 (10 µM) , system Vero E6 infected with SARS-CoV-2? 113

Form entry - test system: Vero E6 infected with SARS-CoV-2; read-out: SARS-CoV-2 infection rate; compound: CC(=O)N(O)C/C=C/c1cccc(Oc2ccccc2)c1 (10 µM) 97.5

Form entry - test system: Vero E6 infected with SARS-CoV-2; read-out: SARS-CoV-2 infection rate; compound: CN(C)CCN1C(=O)c2cccc3cc(NC(N)=O)cc(c23)C1=O [unbs-5162] (10 µM) 102

Request - read-out SARS-CoV-2 infection rate | tested on Vero E6 infected with SARS-CoV-2 | compound CCOC(=O)[C@H](CCc1ccccc1)N[C@@H](C)C(=O)N1C(=O)N(C)C[C@H]1C(=O)O [imidapril] (10 µM) 117

What measured SARS-CoV-2 infection rate is associated with CC(C)(C)NC(=O)[C@@H](c1cccnc1)N(C(=O)c1ccco1)c1ccc(C(C)(C)C)cc1 (10 µM) on Vero E6 infected with SARS-CoV-2? 83

Enter reported SARS-CoV-2 infection rate observed with Vero E6 infected with SARS-CoV-2 for CCc1ccc(C(=O)C(C)CN2CCCCC2)cc1 (configuration not stated) [eperisone] (10 µM) 80

Requested read-out SARS-CoV-2 infection rate, target or system Vero E6 infected with SARS-CoV-2, entry CC(C)[C@@]1(NC(=O)[C@@H]2C[C@@H]3c4cccc5[nH]cc(c45)C[C@H]3N(C)C2)O[C@@]2(O)[C@@H]3CCCN3C(=O)[C@H](Cc3ccccc3)N2C1=O [dihydroergocristine] (10 µM) 117

What SARS-CoV-2 infection rate appears in the records for this compound with Vero E6 infected with SARS-CoV-2? Nc1nc2[nH]cc(CCc3ccc(C(=O)N[C@@H](CCC(=O)O)C(=O)O)cc3)c2c(=O)[nH]1 [pemetrexed] (10 µM) 121

* * *

Tested on: Vero E6 infected with SARS-CoV-2
Test: inhibition of SARS-CoV-2 cytopathic effect; higher = more antiviral protection, active = above 15
Settings: 833.33 nM; 48 h
Let's look at some compounds and their measured inhibition of SARS-CoV-2 cytopathic effect.
Unit % implied. Number only.

Some solved entries appear below for comparison.
Sc1ncnc2nc[nH]c12 [mercaptopurine] : 1.92
CCN(CCCCOC(=O)c1ccc(OC)c(OC)c1)C(C)Cc1ccc(OC)cc1 (stereo not given) [mebeverine] : -1.35
CCNC(=O)/C=C/c1cccc(Br)c1 [cinromide] : 2.1
Nc1ncnc2c1nc(Br)n2[C@@H]1O[C@@H]2COP(=O)(O)O[C@H]2[C@H]1O [8-bromo-cAMP] : -1.33
CCNC(=O)CC[C@H](N)C(=O)O [L-theanine] : -0.63

Please find the next compound below.
For `Nc1ccn([C@@H]2O[C@@](CO)(CCl)[C@@H](O)[C@H]2F)c(=O)n1` , what is its reported inhibition of SARS-CoV-2 cytopathic effect? -0.34

* * *

inhibition of SARS-CoV-2 cytopathic effect values for the molecules below.
Test system: Vero E6 infected with SARS-CoV-2
Assay: inhibition of SARS-CoV-2 cytopathic effect; higher = more antiviral protection, active = above 15
Conditions: 833.33 nM; 48 h
Give the value in % but do not write % after it.

Record excerpt, results attached:
O[C@@H](CN1CCC(Cc2ccc(F)cc2)CC1)c1ccc(Cl)cc1 (racemic) [eliprodil] : 2.59
O=c1c(O)c(-c2cc(O)c(O)c(O)c2)oc2cc(O)cc(O)c12 [myricetin] : 5.8
NC1CCN(c2cccc(Cl)n2)CC1 : -0.29

GET /values?readout=inhibition of SARS-CoV-2 cytopathic effect&item= CN(C)c1cc(CNCC(C)(C)C)c(O)c2c1C[C@H]1C[C@H]3[C@H](N(C)C)C(O)=C(C(N)=O)C(=O)[C@@]3(O)C(O)=C1C2=O [omadacycline] -0.64

Field request: inhibition of SARS-CoV-2 cytopathic effect | item: COc1cc(CNC(=O)CCCC/C=C/C(C)C)ccc1O [capsaicin] -1.15

What value of inhibition of SARS-CoV-2 cytopathic effect has been reported for the following molecule? COc1ccc2c(c1OC)C(=O)O[C@@H]2[C@H]1c2cc3c(cc2CCN1C)OCO3 [hydrastine-(1R,9S)] 1.33

Quick one: inhibition of SARS-CoV-2 cytopathic effect for `Cc1ccccc1N1CCN(S(=O)(=O)C[C@]23CC[C@H](C[C@@H]2NC(=O)[C@@H](N)CCS(C)(=O)=O)C3(C)C)CC1` ? 1.11

Which inhibition of SARS-CoV-2 cytopathic effect value is on record for O=C(CNC(=O)c1cccc(C(F)(F)F)c1)N[C@@H]1CCN(Cc2ccc(Cl)cc2)C1 [teijin-compound-1] ? -1.99
